Target: human sirtuin-1 (Sirt1) (Homo sapiens, UniProt Q96EB6)
Construct: purchased BioMol, Hamburg, Germany
Sequence (Q96EB6 whole entry): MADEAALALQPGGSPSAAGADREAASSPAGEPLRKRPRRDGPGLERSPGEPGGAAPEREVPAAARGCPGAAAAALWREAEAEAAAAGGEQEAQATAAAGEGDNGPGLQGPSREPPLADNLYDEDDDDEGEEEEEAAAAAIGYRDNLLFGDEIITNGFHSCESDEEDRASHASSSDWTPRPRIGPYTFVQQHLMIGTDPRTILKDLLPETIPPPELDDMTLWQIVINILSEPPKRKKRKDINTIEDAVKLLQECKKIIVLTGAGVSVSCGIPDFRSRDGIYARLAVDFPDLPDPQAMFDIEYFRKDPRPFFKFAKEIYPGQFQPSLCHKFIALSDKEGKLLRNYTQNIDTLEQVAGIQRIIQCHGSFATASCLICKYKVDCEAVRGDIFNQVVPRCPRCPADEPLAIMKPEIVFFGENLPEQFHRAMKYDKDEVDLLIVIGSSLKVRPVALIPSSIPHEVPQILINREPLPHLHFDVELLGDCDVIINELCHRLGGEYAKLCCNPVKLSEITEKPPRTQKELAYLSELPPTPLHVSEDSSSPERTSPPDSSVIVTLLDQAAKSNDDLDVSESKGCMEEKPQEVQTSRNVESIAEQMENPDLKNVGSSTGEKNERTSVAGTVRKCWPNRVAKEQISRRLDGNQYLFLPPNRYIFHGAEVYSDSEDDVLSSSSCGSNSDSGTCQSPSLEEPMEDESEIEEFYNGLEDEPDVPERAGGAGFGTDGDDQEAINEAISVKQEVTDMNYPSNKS
Assay: SIRT1 Fluorimetric Drug Discovery Kit, Sirt1 activation
Assay type: biochemical
Conditions: Example 1(a), 10 µM; trans-resveratrol as control (1.0)
Use 3 as the dividing line for Fold increase in sirt1 activity versus control, with the line itself on the Condition met side and lower values as Condition not met.

Here are 3 molecules together with their reported answers.
Molecule: COC(=O)c1c(/C=C/c2ccc(OC)cc2)cccc1OC
Class name: Condition not met
--
Molecule: CC(=O)c1c(O)cccc1/C=C/c1ccc(OC2OC(CO)C(O)C(O)C2O)cc1 (centres unmarked)
Class name: Condition not met
--
Molecule: COc1cc(/C=C/c2cccc(O)c2C(=O)O)cc(OC)c1O
Class name: Condition not met

INPUT: Form field: Fold increase in sirt1 activity versus control at least 3? Entry: O=C(O)c1c(O)cccc1/C=C/c1ccc(O)cc1
OUTPUT: Condition met

INPUT: Confirm if Fold increase in sirt1 activity versus control reported for the molecule CCOC(=O)c1c(O)cccc1/C=C/c1ccc(OCC)cc1 is 3 or above.
OUTPUT: Condition met

Source of measurements: patent EP2801357A1
